molecular target: HIF-2α HIS TAG-PASB Domain (Homo sapiens, UniProt Q99814); construct: 100 nM HIF-2α HIS TAG-PASB Domain; experiment: HIF-2α Scintillation Proximity Assay (SPA); format: binding; conditions: 150 nM Compound 211 probe, 100 nM HIF-2α HIS TAG-PASB Domain; read-out: SPA IC50
Sequence (Q99814 240-350 limits assumed): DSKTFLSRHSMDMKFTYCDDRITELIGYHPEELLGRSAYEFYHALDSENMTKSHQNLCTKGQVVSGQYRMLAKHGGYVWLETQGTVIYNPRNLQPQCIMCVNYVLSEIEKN
Hi! Could you tag entries with IC50 below 30 nM as met, and those at or above as not met? Much appreciated.

>>> qualitative_label("N#Cc1cc(F)cc(Oc2ccc3c(c2C(F)F)C(N)C(F)(F)S3(=O)=O)c1 (centres unmarked) [Compound 136]")
"met"
>>> qualitative_label("CS(=O)(=O)c1ccc(Oc2cc(F)cc(C#N)c2)c2c1[C@H](O)C(F)(F)[C@@H]2F [Compound 56]")
"met"
>>> qualitative_label("Cc1cc(C#N)cc(Oc2ccc3c(c2C(F)F)[C@@H](O)C(F)(F)S3(=O)=O)c1 [Compound 156]")
"met"
>>> qualitative_label("CS(=O)(=NC#N)c1ccc(Oc2cncc(C#N)c2)c2c1[C@H](O)C(F)(F)[C@@H]2F (single isomer, unassigned) [Compound 85]")
"not met"
>>> qualitative_label("NS(=O)(=O)c1ccc(Oc2cncc(F)c2)c2c1[C@H](O)C(F)(F)[C@@H]2F [Compound 105]")
"met"
>>> qualitative_label("N=S1(=O)c2ccc(Oc3cc(F)cc(F)c3)c(C(F)F)c2C(O)C1(F)F (single isomer, unassigned) [Compound 163]")
"not met"
>>> qualitative_label("N#CN=S(=O)(CF)c1ccc(Oc2cc(F)cc(C#N)c2)c2c1[C@H](O)[C@H](F)C2 (single isomer, unassigned) [Compound 41]")
"not met"
>>> qualitative_label("O=S1(=O)CC(O)c2c1ccc(Oc1cc(F)cc(F)c1)c2C(F)F (centres unmarked) [Compound 134]")
"not met"

---

target: HIF-2α HIS TAG-PASB Domain (Homo sapiens, UniProt Q99814); construct: 100 nM HIF-2α HIS TAG-PASB Domain; assay: HIF-2α Scintillation Proximity Assay (SPA); type: binding; conditions: 150 nM Compound 211 probe, 100 nM HIF-2α HIS TAG-PASB Domain; read-out: SPA IC50
Metric: IC50 (nM)

>>> obs_value("N#Cc1cncc(Oc2ccc(S(N)(=O)=O)c3c2[C@@H](F)C(F)(F)[C@H]3O)c1 [Compound 104]")
24
>>> obs_value("NC1CS(=O)(=O)c2ccc(Oc3cc(F)cc(Cl)c3)c(C(F)F)c21 (centres unmarked) [Compound 127]")
7880
>>> obs_value("N=S1(=O)c2ccc(Oc3cc(F)cc(F)c3)c(Br)c2C(O)C1(F)F (single isomer, unassigned) [Compound 141]")
4100
>>> obs_value("C[C@@H]1Cc2c(Oc3cc(F)cc(C#N)c3)ccc(S(C)(=O)=O)c2[C@@H]1O [Compound 65]")
1850
>>> obs_value("N#Cc1cc(F)cc(Oc2ccc(S(=O)(=O)C(F)(F)F)c3c2CC(F)C3N)c1 (centres unmarked) [Compound 32]")
3510
>>> obs_value("CS(=N)(=O)c1ccc(Oc2cc(F)cc(F)c2)c2c1[C@H](O)C(F)(F)C2 (some centres unmarked) [Compound 10]")
177
>>> obs_value("N#CN=S(=O)(CF)c1ccc(Oc2cc(F)cc(C#N)c2)c2c1[C@H](O)CC2 (single isomer, unassigned) [Compound 47]")
1400
>>> obs_value("N=S1(=O)c2ccc(Oc3cc(F)cc(F)c3)c(C(F)F)c2C(O)C1(F)F (single isomer, unassigned) [Compound 162]")
29
>>> obs_value("C[S+]([O-])c1ccc(Oc2cc(F)cc(C#N)c2)c2c1[C@H](O)C(F)(F)C2 (some centres unmarked) [Compound 36]")
2000
